Taken from patent US5389621A.

protocol: Tissue distribution of 14C-salicylamide (parent) by HPLC
Assay type: in vivo, male Sprague-Dawley rats
settings: rat, kidney; 1.5 hr; oral 14C-SAM 3 mg/kg, alone or with ASA 10 mg/kg; read-out: 14C-salicylamide in kidney
parameter: concentration at 1.5 h (ng/g)

| moleculeSmiles | parameter | observedValue |
| --- | --- | --- |
| N[14C](=O)c1ccccc1O | concentration at 1.5 h | 152 |

###

protocol: Tissue distribution of 14C-salicylamide (parent) by HPLC
Assay type: in vivo, male Sprague-Dawley rats
settings: rat, lung; 1.5 hr; oral 14C-SAM 6 mg/kg, alone or with ASA 20 mg/kg; read-out: 14C-salicylamide in lung
parameter: concentration at 1.5 h (ng/g)

| moleculeSmiles | parameter | observedValue |
| --- | --- | --- |
| N[14C](=O)c1ccccc1O | concentration at 1.5 h | 41.9 |

###

protocol: Tissue distribution of 14C-salicylamide (parent) by HPLC
Format: in vivo, male Sprague-Dawley rats
settings: rat, liver; 1.5 hr; oral 14C-SAM 3 mg/kg, alone or with ASA 10 mg/kg; read-out: 14C-salicylamide in liver

| moleculeSmiles | concentration at 1.5 h (ng/g) |
| --- | --- |
| N[14C](=O)c1ccccc1O | 16.6 |

###

protocol: Tissue distribution of 14C-salicylamide (parent) by HPLC
Type: in vivo, male Sprague-Dawley rats
settings: rat, heart; 1.5 hr; oral 14C-SAM 6 mg/kg, alone or with ASA 20 mg/kg; ND = not detected; read-out: 14C-salicylamide in heart
parameter: concentration at 1.5 h (ng/g)

| moleculeSmiles | outputUnit | observedValue |
| --- | --- | --- |
| N[14C](=O)c1ccccc1O | ng/g | 2.9 |

###

protocol: Tissue distribution of 14C-salicylamide (parent) by HPLC
Format: in vivo, male Sprague-Dawley rats
settings: rat, lung; 1.5 hr; oral 14C-SAM 3 mg/kg, alone or with ASA 10 mg/kg; read-out: 14C-salicylamide in lung
parameter: concentration at 1.5 h (ng/g)

| moleculeSmiles | observedValue |
| --- | --- |
| N[14C](=O)c1ccccc1O | 17.1 |
